Cited source: patent US20260226154A1

# assayed_system: T1, PACAP38 (human, not fully specified)
# T1 peptide: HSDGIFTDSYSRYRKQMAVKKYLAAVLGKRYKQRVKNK
# experiment_summary: cell-based or functional assay
readout_kind: IC50 (nM), PACAP-induced cAMP accumulation, CHO-K1 cells, cAMP-Glo

# binder, recorded_value
data = [
    ("609C (antibody, V domains shown) VH: EVQLVQSGAEVKKPGSSVKVSCKASGGTFSDLYMHWVRQAPGQGLEWMGLIYPIFADTRYAQKFQGRVTITADESTSTAYMELSSLRSEDTAVYYCAIDQDGSFAYWGQGTLVTVSS VL: DIVMTQSPDSLAVSLGERATINCKSSQSLLDADGKTYLNWLQQKPGQPPKRLIYWASTRESGVPDRFSGSGSGTDFTLTISSLQAEDVAVYYCWQGTWFDLTFGGGTKVEIKR", 0.83),
    ("890C (antibody, human IgG2, kappa, V domains shown, Full chains as named '890C heavy chain' / '890C light chain' (IgG2DASS, kappa); also called anti-PACAP antibody 890C) VH: EVQLVQSGAEVKKPGSSVKVSCKASGGTFSDVYMHWVRQAPGQGLEWMGLIYPIFADTRYAQKFQGRVTITADESTSTAYMELSSLRSEDTAVYYCAIDQDGSFAYWGQGTLVTVSS VL: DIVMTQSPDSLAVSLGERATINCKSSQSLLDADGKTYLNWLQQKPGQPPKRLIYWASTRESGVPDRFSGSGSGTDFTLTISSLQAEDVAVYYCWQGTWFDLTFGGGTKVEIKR", 0.32),
    ("917B (antibody, V domains shown, Humanized anti-PACAP variant) VH: EVQLVQSGAEVKKPGSSVKVSCKASGGTFSDSYMHWVRQAPGQGLEWMGLIYPIFADTRYAQKFQGRVTITADESTSTAYMELSSLRSEDTAVYYCAIDQDGSFAYWGQGTLVTVSS VL: DIVMTQSPDSLAVSLGERATINCKSSQSLLDSDGKTYLNWLQQKPGQPPKRLIYLVSTRESGVPDRFSGSGSGTDFTLTISSLQAEDVAVYYCWQGTWFDLTFGGGTKVEIK", 0.19),
    ("608C (antibody, V domains shown) VH: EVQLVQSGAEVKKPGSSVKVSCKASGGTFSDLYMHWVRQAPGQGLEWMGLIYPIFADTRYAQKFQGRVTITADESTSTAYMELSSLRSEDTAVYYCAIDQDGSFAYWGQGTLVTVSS VL: DIVMTQSPDSLAVSLGERATINCKSSQSLLDSDGKTYLNWLQQKPGQPPKRLIYWASTRESGVPDRFSGSGSGTDFTLTISSLQAEDVAVYYCWQGTWFDLTFGGGTKVEIKR", 0.7),
    ("627C (antibody, V domains shown) VH: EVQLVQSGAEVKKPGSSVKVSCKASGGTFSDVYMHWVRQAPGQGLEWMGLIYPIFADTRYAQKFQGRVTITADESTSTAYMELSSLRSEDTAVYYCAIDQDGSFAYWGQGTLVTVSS VL: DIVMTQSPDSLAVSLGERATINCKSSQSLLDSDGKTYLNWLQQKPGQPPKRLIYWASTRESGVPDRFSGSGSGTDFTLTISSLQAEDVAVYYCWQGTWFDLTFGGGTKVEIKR", 0.4),
]
